Reference source for all entries: patent US20050154189A1

Biological target: T1, Soluble CD28-Ig (human, UniProt P10747 19-152, biotin-conjugated (NHS-biotin) in the labelled-ligand FACS assays)
T1 construct: extracellular domain; Bought from R&D Systems; also called sCD28-Ig; CD28-Ig Fc; not shown: Fc portion of human IgG1
Assay: two-colour FACS profile on transfected cells; score of preference for CD28-Ig over CTLA-4-Ig vs WT hB7-1
Measurement Kind: Binding Score
Respond numerically, and do not add a unit to the figure.

Sample records with Binding Score:
Binder	Quantitative Result
Round 2 CD28H6-6 (ligand) ITPKSVTKRVKETVMLSCDYSTSTEELTSLRIYWQKDSKMVLAILPGKVQVWPEYKNRTITDMNDNPRIVILALRLSDSGTYTCVIQKPVLKGAYKLEHLASVRLMIRADFPVPTINDLGNPSPNIRRLICSGFPRPHLYWLENGEELNATNTTVSQDPGTELYMISSELDFNVTNNHSIVCLIKYGELSVSQIFPWSKPKQEPPIDQLPFWVIIPVSGALVLTAVVLYCLACRHVARWKRTRRNEETVGTERLSPIYLGSAQSSG	1
Round 2 CD28E8-6 (ligand) ITPKSVTKRVKETVMLSCDYNTSTEELTSLRIYWQKDSKMVLAILPGKVQVWPEYKNRTITDMNDNPRIVILALRLSDSGTYTCVIQKPVLKGAYKLEHLTSVRLMIRADFPVPTINDLGNPSPNIRRLICSTSGGFPRPHLYWLENGEELNATNTTVSQDPETKLYMISSELDFNTTSNHSFLCLVKYGDLTVSQTFYWQESKPTPSANQHLTWTIIIPVSAFGISVIIAVILTCLTCRNAAIRRQRRENEVEMQSCSQSP	0
Round 2 CD28A6-9 (ligand) ITPKSVTKRVKETVMLSCDYNTSTEELTSLRIYWQKDSKMVLAILPGKVQVWPEYKNRTITDMNDNPRIVILALRLSDSGTYTCVIQKPVLKGAYKLEHLASVRLMIRADFPVPTINDLGNPSPNIRRLICSTSGGFPRPHLYWLENGEELNATNTTVSQDPGTELYMISSELDFNVTNNHSIVCLIKYGELSVSQIFPWSKPKQEPPIDQLPFLVIIPVSGALVLTAVVLYCLACRHVARWKRTRRNEETVGTERLSPIYLGSAQSSG	1
Round 2 CD28G2-8 (ligand) ITPKSVTKRVKETVMLSCDYNTSTEELTSLRIYWQKDSKMVLAILPGKVQVWPEYKNRTITDMNDNPRIVILALRLSDSGTYTCVIQKPVLKGAYKLEHLASVRLMIRADFPVPSINDLGNPSPNIRRLICSTSGGFPRPHLYWLENGEELNATNTTVSQDPGTELYMISSELDFNVTNNHSIVCLIKYGELSVSQIFPWSKPKQEPPIDQLPFWVIIPVSGALVLTAVVLYCLACRHVARWKRTRRNEETVGTERLSPIYLGSAQSSG	1
Round 2 CD28D2-9 (ligand) ITPKSVTKRVKETVMLSCDYNTSTEELTSLRIYWQKDSKMVLAILPGKVQVWPEYKNRTITDMNDNPRIVILALRLSDSGTYTCVIQKPVLKGAYKLEHLTSVRLMIRADFPVPTINDLGNPSPNIRRLICSTSGGFPRPHLYWLENGEELNATNTTLSQDPETELYMISSELDFNVTNNHSIVCLIKYGELSVSQIFPWSKPKQEPPIDQLPFWVIIPVSGALVLTAVVLYCLACRHVARWKRTRRNEETVGTERLSPIYLGSAQSSG	1

Recorded result, Round 1 CD28BP-84 (ligand, also called R1clone 84; Clone 84) GISQVTKSVKEMAALSCDYNISIDELARMRIYWQKDQQMVLSIISGQVEVWPEYKNRTFPDIINNLSLMILALRLSDKGTYTCVVQKNENGSFRREHLTSVTLSIRADSPVPSITDIGHPAPNVKRIRCSASGGFPEPRLAWMEDGEELNAVNTTVDQDLDTELYSVSSELDFNVTNNHSIVCLIKYGELSVSQIFPWSKPKQEPPIDQLPFWVIIPVSGALVLTAVVLYCLACRHVARWKRTRRNEETVGTERLSPIYLGSAQSSG , Binding Score: 1

Note to self: Binding Score recorded for Round 1 CD28BP-118 (ligand, also called R1clone 118; Clone 118) GISQVTKSVKEMAALSCDYNISIDELARMRIYWQKDQQMVLSIISGQVEVWPEYKNRTFPDIINNLSLMILALRLSDKGTYTCVVQKNENGSFRREHLTSVTLSIRADFPVPSITDIGHPAPNVKRIRCSASGDFPEPRLAWMEDGEELNAVNTTVDQDLDTELYSVSSELDFNVTNNHSIVCLIKYGELSVSQIFPWSKPKQEPPIDQLPFWVIIPVSGALVLTAVVLYCLACRHVARWKRTRRNEETVGTERLSPIYLGSAQSSG was 1

Record Round 2 CD28C6-1 (ligand) ITPKSVTKRVKETVMLSCDYSTSTEELTSLRIYWQKDSKMVLAILPGKVQVWPEYKNRTITDMNDNPRIVILALRLSDSGTYTCVIQKPVLKGAYKLEHLASVRLMIRADFPVPTINDLGNPSPNIRRLICSTSGGFPRPHLYWLENGEELNATNTTVSQDPGTELYMISSELDFNVTNNHSIVCLIKYGELSVSQIFPWSKPKQEPPIDQLPFWVIIPVSGALVLTAVVLYCLACRHGARWKRTRRNEETVGTERLSPIYLGSAQSSG , field Binding Score: 1

Value of measured Binding Score for the entry Round 2 CD28D10-4 (ligand) SGITPKSVTKRVKETVMLSCDYNTSTEELTSLRIYWQKDSKMVLAILPGKVQVWPEYKNRTITDMNDNPRIVILALRLSDKGTYTCVVQKNENGSFRREHLTSVTLSIRADFPVPSITDIGHPAPNVKRIRCSASGGFPEPRLAWMEDGEELNAVNTTVDQDLDTELYSVSSELDFNVTNNHSIVCLIKYGELSVSQIFPWSKPKQEPPIDQLPFWVIIPVSGALVLTAVVLYCLACRHVARWKRTRRNEETVGTERLSPIYLGSAQSSG : 0
